pIC50: recorded values
target system: Mcl-1/Bim interaction, recombinant human Mcl-1 (171-327) (Homo sapiens)
Construct: made in house
protocol details: Cell free Mcl-1: Bim Affinity Assay (Mcl-1 HTRF)
Format: binding
test parameters: TR-FRET, 0.1 nM Mcl-1 (171-327), 0.05 nM biotin-Bim (51-76)
Procedure: Cell free Mcl-1: Bim Affinity Assay (Mcl-1 HTRF) The inhibition of the Mcl-1/Bim interaction was measured using a time-resolved fluorescence resonance energy transfer (TR-FRET) assay. […] A biotinylated peptide derived from human Bim (residues 51-76) was purchased from CPC Scientific (San Jose, CA). […] The reaction plates were further incubated overnight and then were read on an Envision® multimode reader (PerkinElmer). […]
pIC50: −log10 of the molar value.
assay endpoint: pIC50

{"molecule": "CCOC(=O)CCO[C@H]1/C=C/CC[C@@H](CC)S(=O)(=O)NC(=O)c2ccc3c(c2)N(C[C@@H]2CC[C@H]21)C[C@@]1(CCCc2cc(Cl)ccc21)CO3", "assay endpoint": "pIC50", "value": 8.91}
{"molecule": "COC[C@@H]1C[C@@H](C)CC[C@H](O)[C@@H]2CC[C@H]2CN2C[C@@]3(CCCc4cc(Cl)ccc43)COc3ccc(cc32)C(=O)NS1(=O)=O (single isomer, unassigned)", "assay endpoint": "pIC50", "value": 9.08}
{"molecule": "CC[C@@H]1CC/C=C/[C@H](OCC(=O)OC(C)(C)C)[C@@H]2CC[C@H]2CN2C[C@@]3(CCCc4cc(Cl)ccc43)COc3ccc(cc32)C(=O)NS1(=O)=O", "assay endpoint": "pIC50", "value": 8.07}
{"molecule": "COCC1C(C)CC=CC(OC)C2CCC2CN2CC3(CCCc4cc(Cl)ccc43)COc3ccc(cc32)C(=O)NS1(=O)=O (single isomer, unassigned)", "assay endpoint": "pIC50", "value": 9.48}
{"molecule": "CC1C=CC(O)C2CCC2CN2CC3(CCCc4cc(Cl)ccc43)COc3ccc(cc32)C(=O)NS(=O)(=O)C1 (single isomer, unassigned)", "assay endpoint": "pIC50", "value": 8.42}
{"molecule": "C[C@H]1C/C=C\\[C@H](O)[C@@H]2CC[C@H]2CN2C[C@@]3(CCCc4cc(Cl)ccc43)COc3ccc(cc32)C(=O)NS(=O)(=O)N1C[C@@H]1CCCO1 (single isomer, unassigned)", "assay endpoint": "pIC50", "value": 8.44}
{"molecule": "CCN1[C@H](C)CCC[C@H](O)[C@@H]2CC[C@H]2CN2C[C@@]3(CCCc4cc(Cl)ccc43)COc3ccc(cc32)C(=O)NS1(=O)=O", "assay endpoint": "pIC50", "value": 7.88}
{"molecule": "COC[C@H]1C/C=C/[C@H](OC)[C@@H]2CC[C@H]2CN2C[C@@]3(CCCc4cc(Cl)ccc43)COc3ccc(cc32)C(=O)NS(=O)(=O)[C@@H]1C", "assay endpoint": "pIC50", "value": 8.16}
{"molecule": "CONC(=O)CO[C@H]1/C=C/C[C@H](C)[C@@H](C)S(=O)(=O)NC(=O)c2ccc3c(c2)N(C[C@@H]2CC[C@H]21)C[C@@]1(CCCc2cc(Cl)ccc21)CO3", "assay endpoint": "pIC50", "value": 9.61}
{"molecule": "COCC[C@H]1[C@@H](C)C/C=C/[C@H](OC)[C@@H]2CC[C@H]2CN2C[C@@]3(CCCc4cc(Cl)ccc43)COc3ccc(cc32)C(=O)NS1(=O)=O (single isomer, unassigned)", "assay endpoint": "pIC50", "value": 9.42}

---

target system: Mcl-1/Bim interaction, recombinant human Mcl-1 (171-327) (Homo sapiens, UniProt Q07820)
Construct: made in house
Sequence (Q07820 171-327): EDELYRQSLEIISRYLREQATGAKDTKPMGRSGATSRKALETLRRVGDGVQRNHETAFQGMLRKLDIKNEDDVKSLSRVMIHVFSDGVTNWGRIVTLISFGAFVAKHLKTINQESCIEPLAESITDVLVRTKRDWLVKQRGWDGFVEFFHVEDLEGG
protocol details: Cell free Mcl-1: Bim Affinity Assay (Mcl-1 HTRF)
Format: binding
test parameters: cell free Mcl-1:Bim TR-FRET, recombinant human Mcl-1 (171-327)
IC50: recorded values

{"molecule": "C[C@@H]1[C@@H](C)C/C=C/[C@H](OCCN2CCOCC2)[C@@H]2CC[C@H]2CN2C[C@@]3(CCCc4cc(Cl)ccc43)COc3ccc(cc32)C(=O)NS1(=O)=O", "target system": "Mcl-1/Bim interaction, recombinant human Mcl-1 (171-327) (Homo sapiens, UniProt Q07820)", "unit info": "pM", "IC50": 327}
{"molecule": "COC(=O)CC[C@]1(C)CC/C=C/[C@H](O)[C@@H]2CC[C@H]2CN2C[C@@]3(CCCc4cc(Cl)ccc43)COc3ccc(cc32)C(=O)NS1(=O)=O (single isomer, unassigned)", "target system": "Mcl-1/Bim interaction, recombinant human Mcl-1 (171-327) (Homo sapiens, UniProt Q07820)", "unit info": "pM", "IC50": 3580}
{"molecule": "N#CCC[C@@H]1CC/C=C/[C@H](O)[C@@H]2CC[C@H]2CN2C[C@@]3(CCCc4cc(Cl)ccc43)COc3ccc(cc32)C(=O)NS1(=O)=O (single isomer, unassigned)", "target system": "Mcl-1/Bim interaction, recombinant human Mcl-1 (171-327) (Homo sapiens, UniProt Q07820)", "unit info": "pM", "IC50": 329}

---

target system: Mcl-1/Bim interaction, recombinant human Mcl-1 (171-327) (Homo sapiens, UniProt Q07820)
Construct: made in house
protocol details: Cell free Mcl-1: Bim Affinity Assay (Mcl-1 HTRF)
Assay type: binding
test parameters: TR-FRET, 0.1 nM Mcl-1 (171-327), 0.05 nM biotin-Bim (51-76)
// NB: equality with 2 nM counts as condition not met; only IC50 strictly below is condition met

{"molecule": "CC[C@@H]1CC/C=C/[C@H](OCCC2OCCO2)[C@@H]2CC[C@H]2CN2C[C@@]3(CCCc4cc(Cl)ccc43)COc3ccc(cc32)C(=O)NS1(=O)=O [Example 968]", "discrete label": "condition met"}
{"molecule": "CC(=O)O[C@H]1/C=C/C[C@H]2CCCN2S(=O)(=O)NC(=O)c2ccc3c(c2)N(C[C@@H]2CC[C@H]21)C[C@@]1(CCCc2cc(Cl)ccc21)CO3 (single isomer, unassigned) [Example 348]", "discrete label": "condition not met"}
{"molecule": "COCCO[C@H]1/C=C/CCN(CCOC)S(=O)(=O)NC(=O)c2ccc3c(c2)N(C[C@@H]2CC[C@H]21)C[C@@]1(CCCc2cc(Cl)ccc21)CO3 [Example 48]", "discrete label": "condition met"}
{"molecule": "O=C1NS(=O)(=O)[C@H]2CCCC(C2)[C@H](O)[C@@H]2CC[C@H]2CN2C[C@@]3(CCCc4cc(Cl)ccc43)COc3ccc1cc32 (single isomer, unassigned) [Example 364]", "discrete label": "condition not met"}
{"molecule": "CCOC(=O)CO[C@H]1/C=C/[C@H](C)[C@H](C)[C@@H](C)S(=O)(=O)NC(=O)c2ccc3c(c2)N(C[C@@H]2CC[C@H]21)C[C@@]1(CCCc2cc(Cl)ccc21)CO3 [Example 1050]", "discrete label": "condition met"}

---

target system: Mcl-1/Bim interaction, recombinant human Mcl-1 (171-327) (Homo sapiens, UniProt Q07820)
Construct: made in house
protocol details: Cell free Mcl-1: Bim Affinity Assay (Mcl-1 HTRF)
Assay type: binding
test parameters: cell free Mcl-1:Bim TR-FRET, recombinant human Mcl-1 (171-327)
assay endpoint: IC50

{"compound": "O=C1NS(=O)(=O)CCCC/C=C/[C@@H]2CC[C@H]2CN2C[C@@]3(CCCc4cc(Cl)ccc43)COc3ccc1cc32 [Example 858]", "value": "27.8 nM"}
{"compound": "CC[C@@H]1/C=C/C[C@H](O)[C@@H]2CC[C@H]2CN2C[C@@]3(CCCc4cc(Cl)ccc43)COc3ccc(cc32)C(=O)NS1(=O)=O (single isomer, unassigned) [Example 766]", "value": "6.5 nM"}
{"compound": "C[C@H]1C/C=C/[C@H](O)[C@@H]2CC[C@H]2CN2C[C@@]3(CCCc4cc(Cl)ccc43)COc3ccc(cc32)C(=O)NS(=O)(=O)[C@@H]1c1ccccc1 (single isomer, unassigned) [Example 654]", "value": "7.6 nM"}
{"compound": "O=C1NS(=O)(=O)CC/C=C/[C@H](O)C[C@@H]2CC[C@H]2CN2C[C@@]3(CCCc4cc(Cl)ccc43)COc3ccc1cc32 (single isomer, unassigned) [Example 884]", "value": "1.29 nM"}
{"compound": "CC1CC=CC(O)C2CCC2CN2CC3(CCCc4cc(Cl)ccc43)COc3ccc(cc32)C(=O)NS(=O)(=O)N1Cc1ccccn1 (single isomer, unassigned) [Example 668]", "value": "17 nM"}
{"compound": "C=C1CCCCCS(=O)(=O)NC(=O)c2ccc3c(c2)N(C[C@@H]2CC[C@@H]12)C[C@@]1(CCCc2cc(Cl)ccc21)CO3 [Example 904]", "value": "16.2 nM"}
{"compound": "O=C1NS(=O)(=O)CCCCC[C@@H](NC(=O)C2CC2)[C@@H]2CC[C@H]2CN2C[C@@]3(CCCc4cc(Cl)ccc43)COc3ccc1cc32 (single isomer, unassigned) [Example 937]", "value": "4.75 nM"}
{"compound": "COC1CC=CC(O)C2CCC2CN2CC3(CCCc4cc(Cl)ccc43)COc3ccc(cc32)C(=O)NS(=O)(=O)C1CC1CCCO1 (single isomer, unassigned) [Example 638]", "value": "0.243 nM"}
{"compound": "CN(C)S(=O)(=O)N1CCN(C(=O)CC[C@@H]2CC/C=C/[C@H](O)[C@@H]3CC[C@H]3CN3C[C@@]4(CCCc5cc(Cl)ccc54)COc4ccc(cc43)C(=O)NS2(=O)=O)CC1 (single isomer, unassigned) [Example 626]", "value": "0.305 nM"}
{"compound": "Cc1nc(CO[C@H]2/C=C/CC[C@@H](C)S(=O)(=O)NC(=O)c3ccc4c(c3)N(C[C@@H]3CC[C@H]32)C[C@@]2(CCCc3cc(Cl)ccc32)CO4)no1 [Example 603]", "value": "0.667 nM"}
